# Test system: U2OS
# ASSAY_DETAILS: Incucyte cell viability with U2OS; also: unitless GR value; below 1 slowed growth and below 0 cell loss
# Assay type: toxicity, cell-based
# CONDITION_INFO: human, 6 h, 10 µM, compound concentration 10 uM, replicate number 1, timepoint 6 hours
MEASUREMENT_LABEL: Growth Rate

Field: example entries. Status: answers known.
>  <COMPOUND>
COc1cc(Br)c(S(=O)(=O)Nc2ccc(C(F)(F)F)c(O[C@@H]3CCN(C)C3)c2)cc1OC

>  <Growth Rate>
0.02

$$$$
>  <COMPOUND>
COc1ccc2cc(S(=O)(=O)N[C@H](CC(=O)N[C@H](Cc3ccc(CN4[C@H](C)CCC[C@@H]4C)cc3)C(=O)N(C)C(C)C)c3ccc4c(c3)OCO4)ccc2c1.Cl

>  <Growth Rate>
0.84

$$$$
>  <COMPOUND>
C[C@H](N)Cn1ccc2cc(F)c(Cl)cc21.O=C(O)/C=C/C(=O)O

>  <Growth Rate>
0.36

$$$$
>  <COMPOUND>
COc1ccc(C(=O)N2CCN(C(=O)/C=C/c3ccc(Br)cc3)CC2)cc1

>  <Growth Rate>
-0.38

$$$$
>  <COMPOUND>
CN[C@@H](C)C(=O)N[C@H](C(=O)N1CCC[C@H]1C(=O)Nc1snnc1-c1ccccc1)C1CCCCC1 [GDC-0152]

>  <Growth Rate>
0.5

$$$$

## Input What does the data say about its Growth Rate? Entry: N[C@@H](CCP(=O)(O)O)C(=O)O
## Output 0.67

## Input I have this compound here, CCn1c(-c2nc3cc(C(=O)N4CCCC(N)C4)ccc3n2C)cc2ccccc21.Cl (stereo not drawn) , and I need its recorded Growth Rate.
## Output 0.71

## Input What Growth Rate value was documented for this compound, O=C(O)c1cccc(/C=C2/C[C@@H]3[C@@H](/C=C/[C@H](O)C4CCCCC4)[C@H](O)C[C@@H]3O2)c1 ?
## Output 0.65

The measured values listed here are drawn from ChEMBL document CHEMBL5058564.
